Listed here: items and their measured pIC50.
Biological target: METTL3/14 (Homo sapiens (Human), UniProt Q86U44)
Sequence (Q86U44 whole entry): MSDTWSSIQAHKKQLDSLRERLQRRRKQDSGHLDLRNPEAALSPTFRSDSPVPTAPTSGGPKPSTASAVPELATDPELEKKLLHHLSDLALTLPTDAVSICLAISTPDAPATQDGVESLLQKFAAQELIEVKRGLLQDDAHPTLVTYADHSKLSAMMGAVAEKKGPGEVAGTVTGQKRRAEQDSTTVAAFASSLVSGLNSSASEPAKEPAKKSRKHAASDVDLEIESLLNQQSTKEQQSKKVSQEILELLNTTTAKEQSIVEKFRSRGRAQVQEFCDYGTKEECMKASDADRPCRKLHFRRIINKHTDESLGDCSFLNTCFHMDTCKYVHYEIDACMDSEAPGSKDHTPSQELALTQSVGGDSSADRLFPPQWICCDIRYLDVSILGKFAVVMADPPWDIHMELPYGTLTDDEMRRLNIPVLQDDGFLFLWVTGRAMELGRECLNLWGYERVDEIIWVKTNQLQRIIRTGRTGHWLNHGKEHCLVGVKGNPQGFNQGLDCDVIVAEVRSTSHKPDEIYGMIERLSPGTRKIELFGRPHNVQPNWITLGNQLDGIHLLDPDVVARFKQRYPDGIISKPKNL
Sequence (Q9HCE5 whole entry partner): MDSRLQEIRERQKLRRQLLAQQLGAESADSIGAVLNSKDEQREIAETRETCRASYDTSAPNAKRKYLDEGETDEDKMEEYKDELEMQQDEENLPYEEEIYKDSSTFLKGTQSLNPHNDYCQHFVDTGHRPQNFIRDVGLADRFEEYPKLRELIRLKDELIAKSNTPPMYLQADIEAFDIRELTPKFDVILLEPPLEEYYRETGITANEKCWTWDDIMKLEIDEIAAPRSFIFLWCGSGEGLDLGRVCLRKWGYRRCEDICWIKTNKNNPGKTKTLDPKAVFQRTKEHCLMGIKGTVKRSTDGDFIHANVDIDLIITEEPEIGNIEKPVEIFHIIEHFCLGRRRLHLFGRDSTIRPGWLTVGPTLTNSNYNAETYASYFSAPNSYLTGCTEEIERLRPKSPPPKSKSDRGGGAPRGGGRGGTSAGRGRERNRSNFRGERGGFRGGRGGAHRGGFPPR
Assay: METTL3/14 methyltransferase assay (RapidFire mass spectrometry, RFMS)
Settings: 5 nM METTL3/14, 0.2 μM RNA substrate, 0.5 μM SAM, 60 minutes at room temperature
pIC50: −log10 of the molar value.
Measure name: pIC50

{"columns": ["Compound", "Readout number"],
 "data": [
  ["Nc1ncnc2c1ccn2[C@@H]1C[C@H](c2ccc3cc(CN4CCC5(CCC5)C4)[nH]c3c2)[C@@H](O)[C@H]1O", 8.21],
  ["Nc1ncnc2c1c(Br)cn2[C@@H]1O[C@H](CC/C=C/CNCc2ccccc2)[C@@H](O)[C@H]1O", 6.91],
  ["Nc1ncnc2c1c(Br)cn2[C@@H]1O[C@H](/C=C/C2CC(N)C2)[C@@H](O)[C@H]1O (stereo partly drawn)", 5.88],
  ["Nc1ncnc2c1c(Br)cn2[C@@H]1O[C@H](/C=C/C2CCNCC2)[C@@H](O)[C@H]1O", 6.38],
  ["Nc1ncnc2c1c(F)cn2[C@@H]1C[C@H](c2ccc3cc(CNCC45CC(F)(C4)C5)[nH]c3c2)[C@@H](O)[C@H]1O", 8.21],
  ["Nc1ncnc2c1c(Br)cn2[C@@H]1O[C@H](/C=C/CC2CNC2)[C@@H](O)[C@H]1O", 6.28],
  ["Nc1ncnc2c1c(Br)cn2[C@@H]1O[C@H](/C=C/CCCNCC23CC(F)(C2)C3)[C@H](F)[C@H]1O", 7.71],
  ["Nc1ncnc2c1c(Br)cn2[C@@H]1C[C@H](c2cccc(CCNCC34CC(F)(C3)C4)c2)[C@@H](O)[C@H]1O", 6.93],
  ["Nc1ncnc2c1c(Br)cn2[C@@H]1O[C@H](/C=C/CCCN2CCCC(F)C2)[C@@H](O)[C@H]1O (stereo partly drawn)", 6.45]
]}

----------
Molecular target: METTL3/14 (Homo sapiens (Human))
Assay: METTL3/14 methyltransferase assay (RapidFire mass spectrometry, RFMS)
Details: 5 nM METTL3/14, 0.2 μM RNA substrate, 0.5 μM SAM, 60 minutes at room temperature
pIC50: −log10 of the molar value.

{"columns": ["Compound", "System under test", "pIC50"],
 "data": [
  ["Nc1ncnc2c1c(Br)cn2[C@@H]1O[C@H](/C=C/C2CCCNC2)[C@@H](O)[C@H]1O (stereo partly shown)", "METTL3/14 (Homo sapiens (Human))", 6.45],
  ["Nc1ncnc2c1c(Br)cn2[C@@H]1O[C@H](/C=C/C2COC2)[C@@H](O)[C@H]1O", "METTL3/14 (Homo sapiens (Human))", 5.53],
  ["NCC/C=C/[C@H]1O[C@@H](n2cc(Br)c3c(N)ncnc32)[C@H](O)[C@@H]1O", "METTL3/14 (Homo sapiens (Human))", 6.25],
  ["Nc1ncnc2c1c(Br)cn2[C@@H]1O[C@H](/C=C/C2CCNC2)[C@@H](O)[C@H]1O (stereo partly shown)", "METTL3/14 (Homo sapiens (Human))", 6.34],
  ["Nc1ncnc2c1c(Br)cn2[C@@H]1O[C@H](/C=C/CCCN2CCC3(CCC3)C2)[C@@H](O)[C@H]1O", "METTL3/14 (Homo sapiens (Human))", 7.62],
  ["Nc1ncnc2c1c(Br)cn2[C@@H]1O[C@H](/C=C/CCCN2CCC(F)CC2)[C@@H](O)[C@H]1O", "METTL3/14 (Homo sapiens (Human))", 6.64],
  ["Nc1ncnc2c1c(Br)cn2[C@@H]1C[C@H](c2ccc(CNCC34CC(F)(C3)C4)cc2)[C@@H](O)[C@H]1O", "METTL3/14 (Homo sapiens (Human))", 8.04]
]}
